target: M4 muscarinic receptor (Homo sapiens, UniProt P08173); construct: expressed in transfected cells; host or cells: CHO (M4-CHO); assay: Functional mobilization of intracellular calcium (FLIPR), M4-CHO cells; assay type: cell-based; conditions: 100% efficacy = maximum response obtained with the Carbachol control
Sequence (P08173 whole entry): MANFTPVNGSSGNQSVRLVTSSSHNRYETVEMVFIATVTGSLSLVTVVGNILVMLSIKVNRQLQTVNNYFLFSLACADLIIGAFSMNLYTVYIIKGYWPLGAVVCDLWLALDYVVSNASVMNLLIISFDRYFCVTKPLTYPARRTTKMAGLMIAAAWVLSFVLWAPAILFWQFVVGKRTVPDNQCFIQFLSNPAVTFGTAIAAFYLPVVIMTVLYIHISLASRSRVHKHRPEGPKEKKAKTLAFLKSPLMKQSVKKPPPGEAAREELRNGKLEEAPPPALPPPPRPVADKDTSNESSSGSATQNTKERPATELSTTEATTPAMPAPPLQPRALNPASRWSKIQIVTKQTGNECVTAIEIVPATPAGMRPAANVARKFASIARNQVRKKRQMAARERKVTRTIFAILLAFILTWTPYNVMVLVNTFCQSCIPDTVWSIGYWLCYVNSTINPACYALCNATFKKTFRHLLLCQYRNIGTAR
Measured Emax by item

{"COMPOUND": "CCOC(=O)N1CCC(CN2CCC(c3cc(OC)cc(F)c3F)CC2)CC1 [Compound 177]", "Emax": "25 to 100%"}
{"COMPOUND": "CCN(CC)C(=O)c1ccc(-c2ccc(OC)c(C3CCN([C@H]4C[C@H]5CC[C@H]4C5)CC3)c2)cc1 [Compound 98]", "Emax": "< 25%"}
{"COMPOUND": "COc1ccc(F)cc1C1CCN([C@@H]2C[C@H]3CC[C@H]2C3)CC1 [Compound 354]", "Emax": "25 to 100%"}
{"COMPOUND": "CCCC1CCC(N2CCC(c3cc(F)ccc3OC)CC2)CC1 (stereo not drawn) [Compound 125]", "Emax": "25 to 100%"}
{"COMPOUND": "COc1ccccc1C1CCN(C2CCC3CCC2C3)CC1 (stereo not drawn) [Compound 221]", "Emax": "25 to 100%"}
{"COMPOUND": "COc1ccc(Cl)cc1C1(O)CCN(C2CC3CCC2C3)CC1 (stereo not drawn) [Compound 63]", "Emax": "25 to 100%"}
{"COMPOUND": "COc1ccccc1C1CCN(C2CCC(C(C)(C)C)CC2)CC1 (stereo not drawn) [Compound 152]", "Emax": "< 25%"}
{"COMPOUND": "c1cc2c(c(C3CCN(C4C[C@@H]5CC[C@@H]4C5)CC3)c1)OCO2 (stereo partly drawn) [Compound 236]", "Emax": "25 to 100%"}
{"COMPOUND": "Cc1ccccc1C1CCN(CC2CC3C=CC2C3)CC1 (stereo not drawn) [Compound 46]", "Emax": "25 to 100%"}
{"COMPOUND": "COc1ccc(C(=O)C(C)(C)C)cc1C1CCN([C@H]2C[C@H]3CC[C@H]2C3)CC1 [Compound 109]", "Emax": "25 to 100%"}
{"COMPOUND": "COc1ccc(F)cc1C1(F)CCN(C2CCC3CCC2C3)CC1 (stereo not drawn) [Compound 242]", "Emax": "25 to 100%"}
{"COMPOUND": "COc1ccc(F)cc1C1CCN(C[C@@H]2C[C@H]3C=C[C@H]2C3)CC1 [Compound 167]", "Emax": "25 to 100%"}
{"COMPOUND": "COc1ccc(Cl)cc1C1CCN(C2CCC(=O)CC2)CC1 [Compound 273]", "Emax": "25 to 100%"}
{"COMPOUND": "COc1ccc(C(=O)C(C)C)cc1C1CCN(C2CC3CC[C@H]2C3)CC1 (stereo in doubt) [Compound 222]", "Emax": "< 25%"}
{"COMPOUND": "Fc1cccc(C2CCN(C3C[C@H]4CC[C@H]3C4)CC2)c1F (stereo partly drawn) [Compound 276]", "Emax": "25 to 100%"}
{"COMPOUND": "CCNC(=O)c1ccc(-c2ccc(OC)c(C3CCN([C@H]4C[C@H]5CC[C@H]4C5)CC3)c2)cc1 [Compound 84]", "Emax": "< 25%"}
{"COMPOUND": "COc1ccc(Cl)cc1C1(OC)CCN(C[C@@H]2C[C@H]3C=C[C@H]2C3)CC1 [Compound 286]", "Emax": "25 to 100%"}
{"COMPOUND": "COc1ccc(F)cc1C1(OC)CCN(C[C@H]2C[C@H]3C=C[C@H]2C3)CC1 [Compound 292]", "Emax": "25 to 100%"}
{"COMPOUND": "CCOC(=O)N1CCC(CN2CCC(F)(c3cc(Cl)ccc3OC)CC2)CC1 [Compound 122]", "Emax": "25 to 100%"}
{"COMPOUND": "COc1cccc(-c2ccc(OC)c(C3CCN([C@@H]4C[C@H]5CC[C@H]4C5)CC3)c2)c1 [Compound 69]", "Emax": "25 to 100%"}
{"COMPOUND": "FC(F)(F)Oc1ccccc1C1CCN([C@H]2C[C@H]3CC[C@H]2C3)CC1 [Compound 183]", "Emax": "25 to 100%"}
{"COMPOUND": "CCOC(=O)N1C2CCC1CC(N1CCC(c3cc(-c4ccc(C#N)cc4)ccc3OC)CC1)C2 (stereo not drawn) [Compound 317]", "Emax": "25 to 100%"}
{"COMPOUND": "CCCC1CCC(N2CCC(F)(c3cc(Cl)ccc3OC)CC2)CC1 (stereo not drawn) [Compound 365]", "Emax": "25 to 100%"}
{"COMPOUND": "COc1ccc(F)cc1C1(OC)CCN(C2CC3CCC(C3)C2)CC1 (stereo not drawn) [Compound 247]", "Emax": "25 to 100%"}
{"COMPOUND": "COc1cc(F)c(F)cc1C1CCN([C@H]2C[C@H]3CC[C@H]2C3)CC1 [Compound 227]", "Emax": "25 to 100%"}
{"COMPOUND": "COc1cc(F)ccc1C1CCN([C@H]2C[C@H]3CC[C@H]2C3)CC1 [Compound 4]", "Emax": "25 to 100%"}
{"COMPOUND": "COc1ccc(-c2ccc(C#N)cc2)cc1C1CCN(C2CC3CCC(C3)C2)CC1 (stereo not drawn) [Compound 82]", "Emax": "25 to 100%"}
{"COMPOUND": "COc1ccc(F)cc1C1CCN(C2CCCCC2)CC1 [Compound 200]", "Emax": "25 to 100%"}
{"COMPOUND": "COc1ccccc1C1CCN(C2CC3CCC(C3)C2)CC1 (stereo not drawn) [Compound 169]", "Emax": "25 to 100%"}
{"COMPOUND": "COc1ccc(Cl)cc1C1(OC)CCN(CC2CCOCC2)CC1 [Compound 123]", "Emax": "< 25%"}
{"COMPOUND": "COc1ccc(Cl)cc1C1(OC)CCN(C2CCCCC2)CC1 [Compound 203]", "Emax": "25 to 100%"}
{"COMPOUND": "COc1ccc(C#CC2(O)CCCC2)cc1C1CCN([C@H]2C[C@H]3CC[C@H]2C3)CC1 [Compound 287]", "Emax": "25 to 100%"}
{"COMPOUND": "COc1ccc(-c2ccc(C(=O)NCCCO)cc2)cc1C1CCN(C2CCOCC2)CC1 [Compound 184]", "Emax": "< 25%"}

---

Listing of entries alongside the reported Emax.
Target: M2 muscarinic receptor (Homo sapiens)
Construct: expressed in transfected cells; host or cells: CHO (M2-CHO)
Sequence (P08172 1-466): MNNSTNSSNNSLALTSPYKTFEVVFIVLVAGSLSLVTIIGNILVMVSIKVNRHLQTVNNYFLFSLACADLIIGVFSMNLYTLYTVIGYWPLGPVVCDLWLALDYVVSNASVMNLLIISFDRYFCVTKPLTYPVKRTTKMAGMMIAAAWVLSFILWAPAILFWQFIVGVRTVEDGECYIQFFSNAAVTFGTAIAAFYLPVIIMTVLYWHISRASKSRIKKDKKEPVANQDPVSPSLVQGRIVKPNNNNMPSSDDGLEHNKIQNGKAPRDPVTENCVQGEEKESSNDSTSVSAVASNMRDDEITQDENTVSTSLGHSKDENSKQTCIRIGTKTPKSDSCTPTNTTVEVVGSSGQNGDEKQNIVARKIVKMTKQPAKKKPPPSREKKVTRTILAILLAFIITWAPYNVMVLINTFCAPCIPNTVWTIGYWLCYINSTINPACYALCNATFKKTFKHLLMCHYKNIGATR
Test: Functional mobilization of intracellular calcium (FLIPR), M2-CHO cells
Type: cell-based
Conditions: 100% efficacy = maximum response obtained with the Carbachol control
READOUT_TYPE: Emax

{"COMPOUND": "COc1ccc(C(=O)c2ccccc2)cc1C1CCN([C@H]2C[C@H]3CC[C@H]2C3)CC1 [Compound 50]", "TESTED_ON": "M2 muscarinic receptor (Homo sapiens)", "RESULT": "< 25%"}
{"COMPOUND": "COc1ccc(F)cc1C1CCN(C[C@H]2C[C@H]3C=C[C@H]2C3)CC1 [Compound 18]", "TESTED_ON": "M2 muscarinic receptor (Homo sapiens)", "RESULT": "25 to 100%"}
{"COMPOUND": "CCOC(=O)N1CCC(CN2CCC(c3cc(C#N)ccc3OC)CC2)CC1 [Compound 264]", "TESTED_ON": "M2 muscarinic receptor (Homo sapiens)", "RESULT": "< 25%"}
{"COMPOUND": "COc1ccc(-c2ccc(S(C)(=O)=O)cc2)cc1C1CCN(C2CCCCC2)CC1 [Compound 268]", "TESTED_ON": "M2 muscarinic receptor (Homo sapiens)", "RESULT": "25 to 100%"}

---

Measured Emax of individual entries
target: M1 muscarinic receptor (Homo sapiens); construct: expressed in transfected cells; host or cells: CHO (M1-CHO); test: Functional mobilization of intracellular calcium (FLIPR), M1-CHO cells; type: cell-based; conditions: 100% efficacy = maximum response obtained with the Carbachol control
Sequence (P11229 whole entry): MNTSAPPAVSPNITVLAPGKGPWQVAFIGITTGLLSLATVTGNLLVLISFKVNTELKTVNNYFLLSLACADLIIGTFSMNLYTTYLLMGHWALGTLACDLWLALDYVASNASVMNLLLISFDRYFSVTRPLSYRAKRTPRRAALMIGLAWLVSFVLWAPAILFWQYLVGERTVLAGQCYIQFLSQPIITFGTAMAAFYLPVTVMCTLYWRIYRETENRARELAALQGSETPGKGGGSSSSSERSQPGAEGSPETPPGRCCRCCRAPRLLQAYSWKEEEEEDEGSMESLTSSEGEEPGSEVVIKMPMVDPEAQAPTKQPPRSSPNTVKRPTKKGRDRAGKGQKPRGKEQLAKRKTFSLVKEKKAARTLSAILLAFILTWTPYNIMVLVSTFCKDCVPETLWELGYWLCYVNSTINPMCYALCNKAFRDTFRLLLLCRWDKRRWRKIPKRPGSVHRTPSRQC

{"MOLECULE": "CCOC(=O)N1C2CCC1CC(N1CCC(c3ccccc3OC)CC1)C2 (centres unmarked)", "Emax": "25 to 100%"}
{"MOLECULE": "COc1ccc(-c2ccc(S(=O)(=O)C(C)C)cc2)cc1C1CCN([C@H]2C[C@H]3CC[C@H]2C3)CC1", "Emax": "25 to 100%"}
{"MOLECULE": "CCCOc1ccccc1C1CCN([C@H]2C[C@H]3CC[C@H]2C3)CC1", "Emax": "25 to 100%"}
{"MOLECULE": "CCOC(=O)N1C2CCC1CC(N1CCC(F)(c3cc(F)ccc3OC)CC1)C2 (centres unmarked)", "Emax": "25 to 100%"}
{"MOLECULE": "COc1ccc(-c2ccc(F)cc2F)cc1C1CCN([C@H]2C[C@H]3CC[C@H]2C3)CC1", "Emax": "25 to 100%"}
{"MOLECULE": "COc1ccc(Cl)cc1C1(O)CCN(C[C@@H]2C[C@H]3C=C[C@H]2C3)CC1", "Emax": "< 25%"}
{"MOLECULE": "COc1ccc(F)cc1C1CCN(C2CCOCC2)CC1", "Emax": "25 to 100%"}
{"MOLECULE": "COc1ccccc1C1CCN(CC2CCOC2)CC1 (centres unmarked)", "Emax": "25 to 100%"}
{"MOLECULE": "COc1ccc(-c2cc(F)ccc2F)cc1C1CCN([C@H]2C[C@H]3CC[C@H]2C3)CC1", "Emax": "< 25%"}
{"MOLECULE": "COc1ccccc1C1CCN(CC2CCOCC2)CC1", "Emax": "25 to 100%"}
{"MOLECULE": "COc1ccccc1C1(C#N)CCN(C2CC3CCC2C3)CC1 (centres unmarked)", "Emax": "25 to 100%"}
{"MOLECULE": "COc1ccccc1C1CCN(C2CC(C)CC(C)C2)CC1 (centres unmarked)", "Emax": "< 25%"}
{"MOLECULE": "Cc1cccc(-c2ccccc2C2CCN([C@H]3C[C@H]4CC[C@H]3C4)CC2)c1", "Emax": "< 25%"}
{"MOLECULE": "c1ccc(COc2ccccc2C2CCN([C@H]3C[C@H]4CC[C@H]3C4)CC2)cc1", "Emax": "< 25%"}
{"MOLECULE": "COc1ccc(-c2ccc(OC(F)(F)F)cc2)cc1C1CCN([C@H]2C[C@H]3CC[C@H]2C3)CC1", "Emax": "25 to 100%"}
{"MOLECULE": "Cc1ccccc1C1(O)CCN(C2CC3CCC2C3)CC1 (centres unmarked)", "Emax": "< 25%"}
{"MOLECULE": "COc1ccc(F)cc1C1(O)CCN(C[C@@H]2C[C@H]3C=C[C@H]2C3)CC1", "Emax": "< 25%"}

The values you see were collected from patent US7880007B2.
